B1: library; numbered along this chain (parent)
chain: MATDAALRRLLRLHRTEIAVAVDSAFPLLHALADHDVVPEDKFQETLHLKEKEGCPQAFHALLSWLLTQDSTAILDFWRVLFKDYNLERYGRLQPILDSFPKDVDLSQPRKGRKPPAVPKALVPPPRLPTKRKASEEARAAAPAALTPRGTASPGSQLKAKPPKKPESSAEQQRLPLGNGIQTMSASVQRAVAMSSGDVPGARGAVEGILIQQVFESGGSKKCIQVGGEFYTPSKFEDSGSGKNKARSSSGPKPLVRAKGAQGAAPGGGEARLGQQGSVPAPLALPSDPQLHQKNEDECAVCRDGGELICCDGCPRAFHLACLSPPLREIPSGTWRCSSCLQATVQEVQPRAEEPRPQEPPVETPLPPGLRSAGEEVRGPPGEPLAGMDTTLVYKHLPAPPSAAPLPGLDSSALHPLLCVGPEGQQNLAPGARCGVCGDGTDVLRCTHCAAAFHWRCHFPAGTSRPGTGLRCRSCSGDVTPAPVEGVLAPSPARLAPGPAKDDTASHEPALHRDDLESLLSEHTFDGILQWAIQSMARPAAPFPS

variants of: B1; assay: AIRE transcriptional activation functional score (insulin promoter-GFP; nonsense median 0, synonymous median 1) (normalised score); higher = higher AIRE activity (more reporter activation); conditions: with insulin promoter-GFP reporter in HEK293
MEASURED PROPERTY: AIRE transcriptional activation functional score

MUTATION ID	NUMERIC RESULT
S287E	0.811
A505K	0.78
S474I	0.0981
L385T	0.874
Q276N	1.52
Q94A	1.44
L29D	-0.402
K165P	-0.251
H14E	-1.27
S402I	0.78
Q57A	1.25
P355S	0.93
A429V	1.01
H60V	-0.0783
P166M	1.41
D410N	1.12
T72F	0.964
L529Q	-0.832
L122C	1.17
T72N	1.15
A541Y	0.977
E40L	0.272

Every entry's value here was drawn from the supplement of paper PMC12667976.
